# assayed.target: T1, recombinant soluble human GARP-TGFβ1 complex (human, UniProt Q14392 20-628; P01137 30-390)
# T1 construct: co-expressed in HEK293E, purified by the Strep-Tag; TGFβ consists of LAP and mature TGFβ; also called shGARP-TGFβ; rhGARP-TGFβ
# T1 sequence (Q14392 other isoform, or with tags, fused parts or gaps limits assumed, chain 1 of 2): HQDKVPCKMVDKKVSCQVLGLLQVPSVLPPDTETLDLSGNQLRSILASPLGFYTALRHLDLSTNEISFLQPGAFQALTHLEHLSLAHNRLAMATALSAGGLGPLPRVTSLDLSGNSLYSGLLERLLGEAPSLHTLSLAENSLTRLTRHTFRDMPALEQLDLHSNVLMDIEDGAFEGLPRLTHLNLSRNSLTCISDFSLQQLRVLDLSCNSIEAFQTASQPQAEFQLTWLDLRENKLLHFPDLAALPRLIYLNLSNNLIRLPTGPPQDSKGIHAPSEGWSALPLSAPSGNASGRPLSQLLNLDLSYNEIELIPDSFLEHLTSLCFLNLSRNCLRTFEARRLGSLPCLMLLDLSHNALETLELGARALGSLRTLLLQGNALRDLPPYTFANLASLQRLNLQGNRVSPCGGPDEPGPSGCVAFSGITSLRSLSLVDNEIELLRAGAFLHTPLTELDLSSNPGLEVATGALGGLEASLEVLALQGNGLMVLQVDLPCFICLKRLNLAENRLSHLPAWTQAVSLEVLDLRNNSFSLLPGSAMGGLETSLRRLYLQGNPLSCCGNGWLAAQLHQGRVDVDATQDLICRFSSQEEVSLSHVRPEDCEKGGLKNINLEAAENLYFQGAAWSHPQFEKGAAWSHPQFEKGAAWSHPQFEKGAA
# T1 sequence (P01137 30-390 limits assumed, chain 2 of 2): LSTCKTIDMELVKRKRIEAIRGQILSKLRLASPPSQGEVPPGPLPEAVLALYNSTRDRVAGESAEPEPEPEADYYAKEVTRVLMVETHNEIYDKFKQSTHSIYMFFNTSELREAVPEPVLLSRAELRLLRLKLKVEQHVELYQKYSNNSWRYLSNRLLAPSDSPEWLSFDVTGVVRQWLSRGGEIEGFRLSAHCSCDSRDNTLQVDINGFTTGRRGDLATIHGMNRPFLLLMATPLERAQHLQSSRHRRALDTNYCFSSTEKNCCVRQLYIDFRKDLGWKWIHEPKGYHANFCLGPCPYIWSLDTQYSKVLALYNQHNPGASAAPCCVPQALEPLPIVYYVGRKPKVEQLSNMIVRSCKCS
# assay.text: SPR (Biacore), hGARP-TGFβ1 immobilised
readout.label: kon (M⁻¹ s⁻¹)
Response body: numeric value in M⁻¹ s⁻¹, unit text excluded.

- binder: "LHG-10-D (antibody, human IgG1, V domains shown) VH: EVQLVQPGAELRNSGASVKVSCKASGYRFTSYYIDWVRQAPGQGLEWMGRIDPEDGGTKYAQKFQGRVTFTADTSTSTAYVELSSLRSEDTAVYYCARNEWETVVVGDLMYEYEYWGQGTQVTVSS VL: DIQMTQSPTSLSASLGDRVTITCQASQSISSYLAWYQQKPGQAPKLLIYGASRLQTGVPSRFSGSGSGTSFTLTISGLEAEDAGTYYCQQYDSLPVTFGQGTKVELK"
  kon / M⁻¹ s⁻¹: 142000

Now consider a different binder.
What value of kon has been recorded for this entry: LHG-10.6-D (antibody, human IgG1, V domains shown, also called LHG-10.6N297Q) VH: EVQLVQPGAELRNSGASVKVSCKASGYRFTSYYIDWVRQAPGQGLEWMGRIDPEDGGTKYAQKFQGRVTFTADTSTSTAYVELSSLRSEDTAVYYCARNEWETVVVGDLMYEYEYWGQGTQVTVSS VL: DIQMTQSPSSLSASLGDRVTITCQASQSISSYLAWYQQKPGQAPNILIYGASRLKTGVPSRFSGSGSGTSFTLTISGLEAEDAGTYYCQQYASVPVTFGQGTKVELK
284000
